Listing of recorded pIC50 by entry.
test system: 922993-354-T-J3-PDC complex spheroids, viability; assay: Anticancer human tumor 922993-354-T-J3-PDC patient-derived endometrial carcinoma cell line growth inhibition [GQUAD]; settings: curve of first compound; second compound 1 µM;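 note: spheroids exposed to compounds for seven days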
The quantity pIC50 is defined as the negative base-10 logarithm of the molar concentration.

>  <molecule>
CC(=O)O[C@H]1C(=O)[C@@]2(C)[C@H]([C@H](OC(=O)c3ccccc3)[C@]3(O)C[C@H](OC(=O)[C@H](O)[C@@H](NC(=O)c4ccccc4)c4ccccc4)C(C)=C1C3(C)C)[C@]1(OC(C)=O)CO[C@@H]1C[C@@H]2O + Cc1[nH]c2ccc(F)cc2c1-c1nc2c3cccnc3c3ncccc3c2[nH]1

>  <target under test>
922993-354-T-J3-PDC complex spheroids, viability;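 note: spheroids exposed to compounds for seven days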

>  <value observed>
5.03

$$$$

Inquiry: State pIC50 (922993-354-T-J3-PDC complex spheroids, viability) of CC[C@@]1(O)C(=O)OCc2c1cc1n(c2=O)Cc2cc3c(CN(C)C)c(O)ccc3nc2-1 + Cc1[nH]c2ccc(F)cc2c1-c1nc2c3cccnc3c3ncccc3c2[nH]1 .
Reply text: 6.51
